Reference source for all entries: patent US6376497B1

Measured Minimal inhibitory concentration (MIC), listed per entry for reference.
# Test system: Candida albicans IFO. 1385
# Experimental protocol: In vitro antifungal activity, microbroth dilution MIC
# Assay type: cell-based
# Condition context: C. albicans IFO. 1385, RPMI-1640, 35° C., 4 to 48 hours
# unit: µg/mL | format: bare number

# Molecule, Unit of measurement, Minimal inhibitory concentration (MIC)
rows = [
    ("FC(=Cc1ccc(F)cc1)OCC1COC(Cn2ccnc2)(c2ccc(Cl)cc2Cl)O1 (stereo not shown)", "µg/mL", 0.78),
    ("Cc1ccc(C=C(F)OCC2COC(Cn3ccnc3)(c3ccc(Cl)cc3Cl)O2)cc1C (stereo not shown)", "µg/mL", 0.78),
    ("Cc1ccc(C=C(F)OCC2COC(Cn3ccnc3)(c3ccc(Cl)cc3Cl)O2)cc1 (stereo not shown)", "µg/mL", 0.78),
]

Q: Any idea what its Minimal inhibitory concentration (MIC) is? The molecule is FC(OCC1COC(Cn2ccnc2)(c2ccc(F)cc2F)O1)=C(c1cccc(Cl)c1)C(F)(F)F (mixture of isomers)
Ans: 0.78

Q: Need Minimal inhibitory concentration (MIC), item Cc1ccc(C=C(F)OCC2COC(Cn3ccnc3)(c3ccc(F)cc3F)O2)cc1C (mixture of isomers)
Ans: 0.78

Q: Return reported Minimal inhibitory concentration (MIC); argument: COc1cccc(C=C(F)OCC2COC(Cn3ccnc3)(c3ccc(F)cc3F)O2)c1 (mixture of isomers)
Ans: 0.78

###

# Test system: Aspergillus niger A. 16404
# Experimental protocol: In vitro antifungal activity, microbroth dilution MIC
# Assay type: cell-based
# Condition context: RPMI-1640, 35° C., 4 to 48 hours, no growth observed
Readout: Minimal inhibitory concentration(MIC), A. niger A. 16404

Please review the following examples before continuing.
# Compound, Result
records = [
    ("FC(Oc1ccc(OCC2COC(Cn3cncn3)(c3ccc(Cl)cc3Cl)O2)cc1)=C(c1ccc(Cl)cc1)C(F)(F)F (mixture of isomers) [Ex. 122]", "100 µg/mL"),
    ("CCc1ccc(C(=C(F)Oc2ccc(OCC3COC(Cn4ccnc4)(c4ccc(F)cc4F)O3)cc2)C(F)(F)F)cc1 (mixture of isomers) [Ex. 108]", ">100 µg/mL"),
    ("FC(=Cc1ccc(Cl)cc1)OCC1COC(Cn2cncn2)(c2ccc(Cl)cc2Cl)O1 (mixture of isomers) [Ex. 76]", "12.5 µg/mL"),
    ("Cc1cc(C)cc(C(=C(F)OCC2COC(Cn3cncn3)(c3ccc(Cl)cc3Cl)O2)C(F)(F)F)c1 (mixture of isomers) [Ex. 83]", ">100 µg/mL"),
]

Now for a further compound.
Q: # input compound: Cc1ccc(C(=C(F)Oc2ccc(OCC3COC(Cn4cncn4)(c4ccc(Cl)cc4Cl)O3)cc2)C(F)(F)F)cc1 (mixture of isomers) [Ex. 120] ; wanted: its Minimal inhibitory concentration(MIC), A. niger A. 16404
Ans: >100 µg/mL

###

Below is a list of entries, each paired with its recorded Minimal inhibitory concentration (MIC) value.
# Test system: Aspergillus furnigatus B. 19119
# Experimental protocol: In vitro antifungal activity, microbroth dilution MIC
# Type: cell-based
# Condition context: A furnigatus B. 19119, RPMI-1640, 35° C., 4 to 48 hours
Number only, in mg/L; omit the unit.

Solved entries:
# Compound, Minimal inhibitory concentration (MIC) / mg/L
measured = [
    ("Cc1ccc(C(=C(F)OCC2COC(Cn3ccnc3)(c3ccc(F)cc3F)O2)C(F)(F)F)cc1 (mixture of isomers) [Ex. 54]", 3.13),
    ("CCOc1ccc(C=C(F)OCC2COC(Cn3ccnc3)(c3ccc(Cl)cc3Cl)O2)cc1 (stereo not drawn) [Ex. 10]", 12.5),
]

Then there is this compound:
Q: Minimal inhibitory concentration (MIC) for COc1ccc(C(=C(F)OCC2COC(Cn3ccnc3)(c3ccc(Cl)cc3Cl)O2)C(F)(F)F)cc1 (stereo not drawn) [Ex. 27] ?
Ans: 100
